Experiment: Leishmania major promastigote growth inhibition, primary screen (AID 1063);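 further: promastigotes grown with compound for 44 hours at 28 °C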
Conditions: Leishmania major promastigotes, resazurin fluorescence viability; at 10 µM
The campaign covered roughly 200,000 compounds. About 18,000 (9%) were called active. No stated cut-off is given here; in the data, active means inhibition above about 50%; inactive means the rest. The sample as a whole holds a higher share of actives than the screen did.
Classes to choose from: active, inactive

Asked: Assay result, entry CSc1ncccc1C(=O)Nc1nc2ccc(F)cc2s1 — outcome?
Given back: inactive

Asked: And what about the compound COc1ccc(CC(=O)NCc2nnc(SCC(=O)Nc3nccs3)n2C)cc1 ?
Given back: inactive

Asked: And what about the compound Cc1ccc(NC(=S)NCc2ccccc2Cl)c(C)c1 ?
Given back: inactive

Asked: And what about the compound COCCNC(=S)N(Cc1cccnc1)Cc1ccc(OC)c(OC)c1 ?
Given back: inactive

Asked: And what about the compound Cc1ccc(C(=O)NC(=S)NCc2cccnc2)cc1 ?
Given back: inactive

Asked: And what about the compound N#Cc1ncc(C(F)(F)F)cc1Oc1cccnc1 ?
Given back: inactive

Asked: And what about the compound C/C(=N/NC(=O)CCc1ccccc1)c1ccco1 ?
Given back: inactive

Asked: And what about the compound Nc1cccc(-c2cc(-c3ccccc3)nc(-c3cccc(N)c3)n2)c1 ?
Given back: active

Asked: And what about the compound COc1ccc(C(C(O)C(=O)c2c[nH]c3ccccc23)N2CCN(c3ccccc3)CC2)cc1 (stereo unspecified) ?
Given back: active

Asked: And what about the compound CCCc1[nH]nc2c1C(C1CC=CCC1)C(C#N)=C(N)O2 (stereo unspecified) ?
Given back: active

Asked: And what about the compound O=C(Nc1ccccc1)N(Cc1cccnc1)Cc1ccco1 ?
Given back: inactive

Asked: And what about the compound COCC(=O)N=Nc1c(O)[nH]c2ccccc12 ?
Given back: inactive

Asked: And what about the compound N#C/C(=C/c1cccc([N+](=O)[O-])c1)c1nnc2n1CCCCC2 ?
Given back: active

Asked: And what about the compound CCCc1[nH]nc2c1C(c1c(C)nn(-c3ccccc3)c1Cl)C(C#N)=C(N)O2 (stereo unspecified) ?
Given back: inactive

Asked: And what about the compound Cc1c(Cl)cccc1NC(=S)N(Cc1ccccc1)Cc1cccnc1 ?
Given back: active

Asked: And what about the compound Cc1cccc(C(=O)OC(C)CN2CCN(C)CC2)c1 (stereo unspecified) ?
Given back: inactive

Asked: And what about the compound CCCc1[nH]nc2c1C(c1ccc(Br)s1)C(C#N)=C(N)O2 (stereo unspecified) ?
Given back: active

Asked: And what about the compound CCc1ccc(NC(=O)N2CCN(c3ccccc3)CC2)cc1 ?
Given back: inactive

Asked: And what about the compound CCC(=O)Nc1cc(C(F)(F)F)ccc1N1CCCC1 ?
Given back: inactive

Asked: And what about the compound N#CC1=C(N)OC2=C(C(=O)CCC2)C1C1CC=CCC1 (stereo unspecified) ?
Given back: inactive

Asked: And what about the compound CCCc1[nH]nc2c1C(c1ccc(OC(=O)c3ccco3)cc1)C(C#N)=C(N)O2 (stereo unspecified) ?
Given back: inactive

Asked: And what about the compound Cc1cccc(C)c1NC(=S)N(Cc1cccnc1)Cc1ccccc1Cl ?
Given back: active

Asked: And what about the compound NC(=O)COc1ccc(NC(=O)c2ccccc2-c2ccccc2)cc1 ?
Given back: inactive

Asked: And what about the compound COc1ccc(N2CCN(C(C)=C3C(=O)c4ccccc4C3=O)CC2)cc1 ?
Given back: inactive

Asked: And what about the compound CCCCCCn1c(CN2CCCCC2)nc2c1c(=O)n(C)c(=O)n2C ?
Given back: inactive

Asked: And what about the compound Cc1cc(C)nc(N2CCC(C(=O)Nc3ccc4c(c3)OCCO4)CC2)n1 ?
Given back: inactive

Asked: And what about the compound Cc1cccc(N(CC(=O)N=Nc2c(O)[nH]c3ccccc23)S(C)(=O)=O)c1C ?
Given back: active

Asked: And what about the compound Cc1ccc(CN(Cc2cccnc2)C(=S)Nc2cccc(Cl)c2C)cc1 ?
Given back: inactive

Asked: And what about the compound O=C1OCC2=C1C(c1ccccc1)CC(=O)N2c1cccc(F)c1 (stereo unspecified) ?
Given back: inactive

Asked: And what about the compound COC(=O)c1sc2[nH]c(=S)n(N)c(=O)c2c1C ?
Given back: inactive

Asked: And what about the compound CC1CCCN(CCOCCOc2ccccc2-c2ccccc2)C1 (stereo unspecified) ?
Given back: active

Asked: And what about the compound O=C1CN(C(=O)CN2C(=O)NC3(CCCCC3)C2=O)c2ccccc2N1 ?
Given back: inactive

Asked: And what about the compound Cc1ccc(CN(Cc2cccnc2)C(=S)Nc2cc(Cl)ccc2C)cc1 ?
Given back: active

Asked: And what about the compound c1ccc(-c2ccccc2OCCN2CCCCC2)cc1 ?
Given back: inactive

Asked: And what about the compound Cc1cccc(-n2cc(CN3CCN(C(=O)c4ncn[nH]4)CC3)c(-c3cccc(F)c3)n2)c1 ?
Given back: active

Asked: And what about the compound CC1(C)NC(=O)N(CCOc2cccc(Oc3ccccc3)c2)C1=O ?
Given back: inactive

Asked: And what about the compound O=C(CCNC(=O)c1ccc([N+](=O)[O-])cc1)Nc1ccccc1N1CCOCC1 ?
Given back: inactive

Asked: And what about the compound Nc1cccc(CCc2nc3ccccc3[nH]2)c1 ?
Given back: inactive

Asked: And what about the compound CC(O)CNCCOc1cccc(Oc2ccccc2)c1 (stereo unspecified) ?
Given back: active

Asked: And what about the compound N#C/C(=C(\O)C(F)(F)F)c1nnc2n1CCCCC2 ?
Given back: inactive

Asked: And what about the compound CCN(CC)C(=O)C(=O)c1cn(CC(=O)NCc2ccc3c(c2)OCO3)c2ccccc12 ?
Given back: inactive

Asked: And what about the compound CCCC(=O)NC(C)C(c1cccs1)N1CCN(c2ccccc2)CC1 (stereo unspecified) ?
Given back: inactive

Asked: And what about the compound COc1ccc(N2CCN(C(=O)CNS(=O)(=O)c3ccc(C)c(C)c3)CC2)cc1 ?
Given back: inactive

Asked: And what about the compound CNC(=S)Nc1ccc([N+](=O)[O-])cc1 ?
Given back: inactive

Asked: And what about the compound O=C(CC12CC3CC(CC(C3)C1)C2)NCc1ccco1 ?
Given back: inactive

Asked: And what about the compound CCCCCCCCn1c2c(c(=N)c3c1CCC3)CCCC2 ?
Given back: active

---

Would you kindly list inhibition for each of these compounds?
Test: Leishmania major promastigote growth inhibition, primary screen (AID 1063);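 further: promastigotes grown with compound for 44 hours at 28 °C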
Conditions: Leishmania major promastigotes, resazurin fluorescence viability; at 10 µM; active compounds read high
Out of some 200,000 compounds screened, about 18,000 (9%) were called active. This excerpt belongs to a sample that is enriched for actives.

Asked: Which inhibition reading was recorded for the compound Nc1ccc(Cl)c(S(=O)(=O)Nc2ccccc2Cl)c1 ?
Given back: 1.56% (inactive)

Asked: And what about the compound O=C(Nc1ccc(Cl)cn1)c1ccc2c(c1)OCCO2 ?
Given back: -10.2% (inactive)

Asked: And what about the compound Cc1ccc(N(C(=O)c2ccc(S(=O)(=O)N(C)C)cc2)C2C=CS(=O)(=O)C2)cc1 (stereo not drawn) ?
Given back: 5.35% (inactive)

Asked: And what about the compound Cn1nnnc1-c1cc(Cl)cc(Cl)c1 ?
Given back: 5.35% (inactive)

Asked: And what about the compound Cc1nn(CC(=O)NCc2ccccn2)c(C)c1[N+](=O)[O-] ?
Given back: -2.73% (inactive)

Asked: And what about the compound COc1cccc(Cn2cnc3c([N+](=O)[O-])c(C)c(C)cc32)c1 ?
Given back: 12.1% (inactive)

Asked: And what about the compound O=C(COC(=O)c1ccccc1)Nc1cccc(S(=O)(=O)N2CCOCC2)c1 ?
Given back: -3.29% (inactive)

Asked: And what about the compound Cc1cc(C(C)(C)C)cc(S(=O)(=O)Nc2ccc(C(=O)O)cc2)c1C ?
Given back: -3.3% (inactive)

Asked: And what about the compound CC(=O)c1ccc(N2CCN(CC(=O)Nc3ccccc3N3CCOCC3)CC2)cc1 ?
Given back: 12.9% (inactive)

Asked: And what about the compound Cc1cc(C)cc(NC(=O)CSc2ccccc2)c1 ?
Given back: 1.71% (inactive)

Asked: And what about the compound Cc1nn(CC(=O)Nc2nc3ccccc3s2)c(C)c1[N+](=O)[O-] ?
Given back: 50.5% (active)

Asked: And what about the compound CCOc1ccc(-n2cnnn2)cc1S(=O)(=O)N1CCC(C)CC1C (stereo not drawn) ?
Given back: -5.29% (inactive)

Asked: And what about the compound Fc1cccc2ncnc(OCc3ccccc3)c12 ?
Given back: -9.83% (inactive)

Asked: And what about the compound COc1cc(NC(=S)NCCSc2ccc(C)cc2)cc(OC)c1 ?
Given back: 7.14% (inactive)

Asked: And what about the compound CC(=O)C1C(c2ccc(Cl)cc2)c2c(n[nH]c2C)CC1(C)O (stereo not drawn) ?
Given back: -0.37% (inactive)

Asked: And what about the compound CCN(CC)S(=O)(=O)c1ccc(Cl)c(NC(=O)c2ccncc2)c1 ?
Given back: 19.7% (inactive)

Asked: And what about the compound COc1ccccc1CSc1ncc(-c2ccc([N+](=O)[O-])cc2)[nH]1 ?
Given back: 76.4% (active)

Asked: And what about the compound O=C(O)CCc1nc2cc(Cl)ccc2n(Cc2ccccc2)c1=O ?
Given back: -0.11% (inactive)

Asked: And what about the compound Cc1ccc(NC(=O)OCCNC(=O)c2ccncc2)cc1 ?
Given back: 0.55% (inactive)

Asked: And what about the compound Cc1cccc(C(=O)NC(=S)N2CCN(c3ccc([N+](=O)[O-])cc3)CC2)c1 ?
Given back: 36.9% (inactive)

Asked: And what about the compound COc1ccccc1CSc1nc2ccccc2[nH]1 ?
Given back: -3.47% (inactive)

Asked: And what about the compound O=C(CCN1C(=O)C2C3C=CC(C3)C2C1=O)Oc1ccc2ccccc2c1 (stereo not drawn) ?
Given back: 24% (inactive)

Asked: And what about the compound O=C(c1ccc(F)cc1)n1cc(C(=S)N2CCOCC2)c2ccccc21 ?
Given back: -2.86% (inactive)
